Test: NCI Yeast Anticancer Drug Screen. Data for the mec2-1 strain (AID 157)
Conditions: S. cerevisiae mec2-1 strain, at 50.0 µM, hits give high values
About 79,000 compounds went through this panel and 15% of them were active in at least one assay; those are over-represented in the sample as a whole.
OUTCOME_MEASURE: growth inhibition (%)
Express your answer in %, writing the number without its unit.

Prompt: Quote growth inhibition reported for O=S(=O)(N1CCCCC1)N1CCCCC1 please.
Response: -0.85

Prompt: Quote growth inhibition reported for CCC1(C#N)N=C(c2ccccc2)c2ccccc2N1C(=O)Oc1ccccc1 (centres undefined) please.
Response: 2.65

Prompt: Quote growth inhibition reported for Cc1ccc(C2C3CCC(=O)C=C3CN2C=O)cc1O (centres undefined) please.
Response: 8.4

Prompt: Quote growth inhibition reported for COc1ccccc1OCC(O)CO (centres undefined) please.
Response: -22.9

Prompt: Quote growth inhibition reported for COc1ccc(-c2cc(C(O)C3CCCCN3)c3ccccc3n2)cc1 (centres undefined) please.
Response: -42

Prompt: Quote growth inhibition reported for CC(C)CCc1ccc2ccc3cccc4ccc1c2c34 please.
Response: 3.55

Prompt: Quote growth inhibition reported for CCCOC(=O)c1ccc(Cl)c(Cl)c1 please.
Response: 7.85

Prompt: Quote growth inhibition reported for CC(=O)Oc1c(Cl)c(Cl)c(C#N)c(Cl)c1C#N please.
Response: 1.7

Prompt: Quote growth inhibition reported for C=CCOC(=O)CCCCC please.
Response: -2.7

Prompt: Quote growth inhibition reported for O=C(O)CCc1cccc2ccccc12 please.
Response: 10.8

Prompt: Quote growth inhibition reported for COC(=O)c1cc(=O)[nH]c(=O)[nH]1 please.
Response: -12.8

Prompt: Quote growth inhibition reported for CCOc1ccc(N2C(C#N)c3ccccc3OC2c2ccccc2O)cc1 (centres undefined) please.
Response: 46.1

Prompt: Quote growth inhibition reported for CN1C(=O)c2ccccc2NC(=O)C12O[C@@H]2c1cccc(O)c1 (some centres undefined) please.
Response: -0.55

Prompt: Quote growth inhibition reported for [CH3][Sn]([CH3])([N](c1ccccn1)c1ccccn1)[N](c1ccccn1)c1ccccn1 please.
Response: 2.7

Prompt: Quote growth inhibition reported for C/C(=N\O)c1cccs1 please.
Response: -4.05

Prompt: Quote growth inhibition reported for CN(C=O)c1ccccc1 please.
Response: 1.8

Prompt: Quote growth inhibition reported for O=C(O)CC(NC(=O)c1cnc2ccccc2n1)C(=O)O (centres undefined) please.
Response: -9.85

Prompt: Quote growth inhibition reported for COc1cc(C)cc2c(-c3c(OC(C)=O)cc(OC(C)=O)c4c3C[C@H](C)N(C(C)=O)[C@H]4C)cc(-c3cc(-c4c(OC(C)=O)cc(OC(C)=O)c5c4C[C@H](C)N(C(C)=O)[C@H]5C)c4cc(C)cc(OC)c4c3O)c(O)c12 please.
Response: 31.5

Prompt: Quote growth inhibition reported for O=C1CSC(=S)N1N1C(=O)CSC1=S please.
Response: -7.8

Prompt: Quote growth inhibition reported for CN1C2C=CC(=O)C1C1C(=O)N(c3ccccc3)C(=O)C12 (centres undefined) please.
Response: 45.1

Prompt: Quote growth inhibition reported for CC(C)OC(=O)c1cc(N)ccc1Cl please.
Response: 23.4

Prompt: Quote growth inhibition reported for C[n+]1c(C2(O)CCCCCCCCCCC2)sc2ccccc21 please.
Response: 10.1

Prompt: Quote growth inhibition reported for CS(=O)(=O)OCCN1C(=O)CNC1=O please.
Response: 8.35

Prompt: Quote growth inhibition reported for Nc1nnc(-c2ccc(Cl)cc2)o1 please.
Response: -1.8

Prompt: Quote growth inhibition reported for COC(=O)/C(=N\NC(=S)NN)C(C(=O)C(=O)Nc1ccccc1C(N)=O)c1nc2ccccc2[nH]c1=O (centres undefined) please.
Response: 6.9

Prompt: Quote growth inhibition reported for CC(=O)OCC(OC(C)=O)C(OC1OC(COC(C)=O)C(OC(C)=O)C(OC(C)=O)C1OC(C)=O)C(OC(C)=O)c1cnn(-c2ccccc2)n1 (centres undefined) please.
Response: -0.1

Prompt: Quote growth inhibition reported for O=C1Nc2c(cccc2-c2ccccc2)C(=O)C1(O)c1ccccc1 (centres undefined) please.
Response: -1.2

Prompt: Quote growth inhibition reported for CCCCNCCS please.
Response: -14.6

Prompt: Quote growth inhibition reported for CC(=O)CCCCO please.
Response: -2.5

Prompt: Quote growth inhibition reported for N#C/C(=C\c1c(Cl)cccc1Cl)c1ccc([N+](=O)[O-])cc1 please.
Response: -0.2

Prompt: Quote growth inhibition reported for O=[N+]([O-])c1ccc(N/N=C/C2CCCCCC2)c([N+](=O)[O-])c1 please.
Response: 13.6

Prompt: Quote growth inhibition reported for CC(=O)OCC1OC(n2nnc(CCl)c2CCl)C(OC(C)=O)C(OC(C)=O)C1OC(C)=O (centres undefined) please.
Response: 8.7

Prompt: Quote growth inhibition reported for OCc1cccc(F)c1 please.
Response: -42.6

Prompt: Quote growth inhibition reported for Nc1nc(N)nc(SCC(=O)O)n1 please.
Response: -23.2

Prompt: Quote growth inhibition reported for C/C(CC(=O)NC1=CC=C(NC(=O)C/C(C)=N\Nc2ccccc2)CC1)=N/Nc1ccccc1 please.
Response: 12

Prompt: Quote growth inhibition reported for CCOc1nc(N)nc(C)c1N=Nc1ccc(O)cc1 please.
Response: 6.2

Prompt: Quote growth inhibition reported for Cc1cc(Br)cc(C)c1NC(=O)C(=O)C(C(=O)c1ccncc1)C1OC(=O)c2ccccc21 (centres undefined) please.
Response: -31.1

Prompt: Quote growth inhibition reported for OC1CCCCC2CC2C1O (centres undefined) please.
Response: -2.8

Prompt: Quote growth inhibition reported for O=C(/C=C/c1cccs1)c1ccc(C(=O)/C=C/c2cccs2)cc1 please.
Response: -46.4

Prompt: Quote growth inhibition reported for O=C1/C(=C/c2ccccc2)SC(=S)N1C1c2ccccc2Oc2ccccc21 please.
Response: 14.6

Prompt: Quote growth inhibition reported for O=C(Nc1nc(=S)[nH][nH]1)C(=O)C1C(=O)Nc2ccccc2S1=O (centres undefined) please.
Response: -10.8

Prompt: Quote growth inhibition reported for CNc1ccc(O)cc1 please.
Response: 6.9

Prompt: Quote growth inhibition reported for NNC(=O)Nc1ccccc1 please.
Response: 5.55

Prompt: Quote growth inhibition reported for O=C(Cc1ccccc1)Nc1ccc(Br)cc1 please.
Response: 15.8

Prompt: Quote growth inhibition reported for NNS(=O)(=O)c1ccc(N)cc1 please.
Response: 1.3

Prompt: Quote growth inhibition reported for Nc1[nH][nH]c(=O)c1N=Nc1ccccc1 please.
Response: -8.95

Prompt: Quote growth inhibition reported for C[S+]1CC2C3CC(C#N)C(C3)C2C1 (centres undefined) please.
Response: 11.2

Prompt: Quote growth inhibition reported for CN(NC(=O)c1ccccc1)C(=O)c1ccccc1 please.
Response: 7.4

Prompt: Quote growth inhibition reported for Clc1cc(Cl)nc(Nc2ccc3c(c2)CCC3)n1 please.
Response: 10.2
